// provenance: PubChem BioAssay (NCI)

# System: SF-295 CNS
# assay.protocol: NCI-60 one-dose screen, 48 h (100 = growth as untreated, 0 = no growth, -100 = all killed)
# reported.conditions: 10 µM
About 83,000 compounds went through this panel and 20% of them were active in at least one assay; those are over-represented in the sample as a whole.
Assignment: determine reported growth for the given compounds.
Quick note: give the figure in %, leave out the unit.

Q: Entry Nc1cc2c(cc1Cl)-c1ccc([N+](=O)[O-])cc1/C2=N\O : reported growth = ?
A: 74.8

Q: Fill in: growth of CCCCCCCNc1nc(C=O)ncc1-c1ccc(C(F)(F)F)cc1 is ___
A: 103

Q: What does the record list as growth for N#Cc1ncc(-c2ccc(C(F)(F)F)cc2)c(NCc2cc(C(F)(F)F)cc(C(F)(F)F)c2)n1 ?
A: 4.36

Q: # get_value(readout='growth', item= O=S(=O)(NCCCNc1nccc(-c2c(-c3ccc(F)cc3)nc3sccn23)n1)c1ccc2ccccc2c1 )
A: 43.7

Q: Reported growth for COc1ccc(-c2nn(-c3cccc(NC(=O)c4ccc(N5CCOCC5)c(C(F)(F)F)c4)c3)cc2-c2ccncc2)cc1Cl : what is it?
A: 9.97

Q: Data request, read-out growth, for CC1(C)CCC(=NNC(N)=S)CC1
A: 88.2

Q: Find the recorded growth belonging to N=C(N)c1ccc(-c2ccc(-c3cccs3)s2)s1 and report it.
A: -79.5

Q: Value lookup for growth; key = C[C@]12CC[C@@H]3c4ccc(O)cc4C[C@@H](O)[C@H]3[C@@H]1CC[C@@H]2O
A: 112

Q: What growth value was documented for this compound, O=C(Nc1cccc(-n2cc(-c3ccncc3)c(-c3ccc(O)c(Cl)c3)n2)c1)c1ccc(Cl)c(Cl)c1 ?
A: 13.9

Q: Any idea what growth was measured for CCCCN(CCCC)CCCCCCCCC(O)c1cc2ccccc2c2ccccc12 (configuration not stated) ?
A: 77.5

Q: Returns the measured growth for the input compound. Input: CCN(CC)CCCC(C)Nc1nc(-c2ccc(OC)cc2)nc2cc(Cl)ccc12 (configuration not stated)
A: 89.7

Q: Quick one: growth for Cc1cc(C)c(CCc2cc(C)c(C)cc2C)cc1C ?
A: 108

---

# System: NCI-H460 lung
# assay.protocol: NCI-60 one-dose screen, 48 h
# reported.conditions: 10 µM
The panel holds about 83,000 compounds, 20% with a hit somewhere; the sample as a whole holds those more often. Active and inactive are the calls of the source. The calls were made as follows: active = growth percent below 10; inactive = the rest.
Your reply should match one of these outcome classes. active, inactive

Q: Called result for NC(=S)N=Nc1c(O)c2ccccc2c2ccccc12
A: inactive

Q: Given CCN(CC)CCOc1nc2cc(OC)c(OC)cc2c2c1-c1ccc(OC)cc1C2=O , state the outcome it received in this test.
A: inactive

Q: What is the recorded call for this compound in the test? COc1cc(OC)cc(-c2cncn2-c2ccc(-c3nc4cc(OC)cc(OC)c4s3)cc2)c1
A: inactive

Q: Identify the outcome logged in this assay for the compound shown: Nc1ccc2c(c1)Cc1cc(N)c(Br)cc1-2
A: inactive

Q: Which outcome was entered for the compound Nc1ccccc1NC(=O)CCCCC(=O)Nc1ccc2c(c1)/C(=C/c1ccc[nH]1)C(=O)N2 in this test?
A: inactive

Q: I would be grateful if you could indicate the recorded call for Nc1ccc2c(c1)C1(CCC2)NC(=O)NC1=O (configuration not stated) .
A: inactive

Q: Which outcome did this test record for the compound O=c1c2ccccc2nc(SCCN2CCCCC2)n1CCc1ccccc1 ?
A: inactive

Q: Kindly provide the recorded test outcome for the following compound: COc1ccc(-c2cc(/C=C3\C(=O)Nc4ccc(Cl)cc43)[nH]n2)cc1OC
A: inactive

Q: Call for entry S=C1SCC(c2ccccc2)S1 (configuration not stated) :
A: inactive

Q: GET /call?item= COc1ccc(-c2nn(-c3cccc(NC(=O)c4ccc(N5CCOCC5)c(C(F)(F)F)c4)c3)cc2-c2ccncc2)cc1Cl returns the recorded outcome of this test.
A: inactive

Q: Give the logged outcome of this assay for the following compound: CN(C)C(=S)N/N=C\C=N/NC(=S)N(C)C
A: inactive

Q: Name the outcome recorded for Clc1nc(Cl)c2c(ncn2C/C=C\Cn2cnc3c(Cl)nc(Cl)nc32)n1 in the assay.
A: active

Q: Identify the outcome logged in this assay for the compound shown: COc1cc(CNCCCCCCN2C(=O)c3cccc4cccc(c34)C2=O)ccc1O
A: inactive

Q: State the result this test recorded for COc1ccc(OC)c(NC(=O)c2sc3nc4c(cc3c2N)C(=O)CCC4)c1 .
A: inactive

Q: Per the records of this test, what outcome belongs to CCOC(=O)C1CCc2c(ccc3ccccc23)N1CCC#N (configuration not stated) ?
A: inactive

Q: For C#Cc1ccc(-n2c(/C=C/c3ccc4ccccc4n3)nc3ncccc3c2=O)cc1 , what call appears in the results of this test?
A: active

Q: Please indicate how the test categorized O=C(Nc1ccc(Cl)c([N+](=O)[O-])c1)Nc1nc2ccccc2s1 .
A: inactive

Q: What call does the record list for CC1CN(Cc2ccccc2)C(=O)NC1=O (configuration not stated) ?
A: inactive

Q: Hi, sorry to bother you, what did the test record for O=C(Nc1ccncc1)C(=O)c1cn(S(=O)(=O)c2cccc3ccccc23)c2ccccc12 ?
A: inactive

Q: Hi, do you know how CCCCCCc1cc(N=Nc2ccc(S(=O)(=O)Nc3cc(C)nc(C)n3)cc2)c(O)cc1O came out in this test?
A: inactive

Q: Any idea what this test logged for CCCCCCCCCCCCCCCCN(C(C)c1ccccc1)S(=O)(=O)c1ccc(OC)c(N)c1 (configuration not stated) ?
A: inactive

Q: Per the assay record, what outcome was assigned to Cc1cccc2c(NCCN(C)C)c3cccc(C(=O)NCCN(C)C)c3nc12 ?
A: active

---

# Tested on: SN12C renal
# assay.protocol: NCI-60 one-dose screen, 48 h (100 = growth as untreated, 0 = no growth, -100 = all killed)
# reported.conditions: 10 µM
The panel holds about 83,000 compounds, 20% with a hit somewhere; the sample as a whole holds those more often.
measurement.label: growth (%)
State the answer as a number, implicitly in %.

Q: What does the data say about its growth? Entry: O=[N+]([O-])c1ccc(Oc2cccnc2)c([N+](=O)[O-])c1
A: 97

Q: growth for COc1cc(Cl)cc(-c2nn(-c3cccc(NC(=O)c4ccc(N5CCOCC5)c(C(F)(F)F)c4)c3)cc2-c2ccncc2)c1 ?
A: 79.8

Q: Record request: growth value, item COc1ccc(OC)c(NC(=O)c2sc3nc4c(cc3c2N)C(=O)CCC4)c1
A: 95.5

Q: Form field: reported growth of ClCC#CCSc1ncnc2c1ncn2CC#CCCl
A: 20.2

Q: Which growth is reported for this compound? CCN(CC)CCC(CNc1c(C)cnc2cc(Cl)ccc12)c1ccc(Cl)c(Cl)c1 (stereo not given)
A: 59.1

Q: Entry CCc1ccc2c(c1)N(CCO)C1=C(C(=O)OC1)C2c1cc(OC)c(OC)c(OC)c1 (stereo not given) : reported growth = ?
A: 28.8

Q: What does the data say about its growth? Entry: COc1cc2nc(Nc3cccc(NC(C)=O)c3)nc(N)c2cc1OC
A: 95.5

Q: # growth lookup, item COc1cc([C@@H]2c3cc4c(cc3C(Br)[C@H]3COC(=O)[C@H]23)OCO4)cc(OC)c1OC (stereo not given in full)
A: 31

Q: Param item = Cc1cc(O)c(C(C)(C)C)cc1Sc1cc(C(C)(C)C)c(O)cc1C ; retrieve measured growth.
A: 58.2

Q: Bench note: what growth did C#Cc1ccc(-n2c(/C=C/c3cc(OC)cc(OC)c3)nc3ncccc3c2=O)cc1 show?
A: 81.8

Q: Sample N=C(N)c1ccc(-c2ccc(-c3ccco3)o2)cc1 — what was its growth?
A: 69.3

Q: Item under review: CC12O[C@H](C[C@@H](OC(=O)c3ccccc3)[C@H]1O)n1c3ccccc3c3c4c(c5c6ccccc6n2c5c31)C(=O)NC4=O . Reported growth?
A: 33

Q: Returns the measured growth for the input compound. Input: c1ccc(CP(Cc2ccccc2)c2ccccc2)cc1
A: 100

Q: Name the recorded growth for CCCCCCCCCCCCCCCCCCOCC(COCCOCC[N+]1(CCCCCC(=O)[O-])CCCC1)Oc1ncccn1 (stereo not given) .
A: 46.6

Q: Any idea what growth was measured for O=C1NC(=O)c2ncccc21 ?
A: 105

Q: Need growth, item Nc1nc(-c2ccccc2Cl)cc(-c2ccc(Cl)cc2Cl)n1
A: 79.6

Q: Which measured growth value corresponds to CC1CC(=O)OC(C)C1 (stereo not given) ?
A: 109

Q: Which growth is reported for this compound? O=S(=O)(NCCCNc1nccc(-c2c(-c3ccc(F)cc3)nc3sccn23)n1)c1ccc2ccccc2c1
A: 49.2

Q: Returns the measured growth for the input compound. Input: N=c1nc(N)ncn1-c1ccccc1
A: 87.3

Q: Data request, read-out growth, for CCOC(=O)C1(CC(C)C)CCOC1=O (stereo not given)
A: 94.7

Q: Could you share which growth value was measured for CC(C)(C)c1ccc(N2CSC(=S)N(c3ccc(C(C)(C)C)cc3)C2)cc1 ?
A: 99.6

Q: What value of growth has been recorded for this entry: CCCCOC(=O)Oc1ccc(C(=O)Oc2ccc(OCC)cc2)cc1
A: 95.3

Q: Can you share its growth? I mean this compound: COc1cc(-c2cc(/C=C/C(=O)c3ccc(Cl)c(Cl)c3)[nH]n2)cc(OC)c1OC
A: 64.3

Q: If you can, please state the reported growth value of CCN(CCCCCCN1CC(=O)N(CCCCCCN(CC)Cc2ccccc2OC)CC1=O)Cc1ccccc1OC .
A: 93.9

Q: # get_value(readout='growth', item= CCN1CCC(CCOC)(CN2c3ccccc3Sc3ccc(Cl)cc32)C1 (stereo not given) )
A: 59.7

Q: Would you mind telling me what growth value was observed for O=C1OCC2=C1C(c1cccc(Cl)c1)c1cc3c(cc1N2CCO)OCCO3 (stereo not given) ?
A: 30

Q: Return reported growth; argument: Cc1ccc(-c2nc(/C=C3/C(=O)N(C)c4ccc(F)cc43)c3ccccn23)cc1
A: 96.1

Q: Return reported growth; argument: CC(=O)[C@H]1CC[C@H]2[C@@H]3CCC4=CC(=O)C=C[C@]4(C)[C@H]3CC[C@]12C
A: 95.9

Q: Record request: growth value, item Clc1ccc2c(NCCCNc3nccc(Nc4ccc(Br)cc4)n3)ccnc2c1
A: -65.1

Q: Fill blank: measured growth of the compound COc1cc(-c2nc(-c3nnc(-c4ccccc4Cl)o3)c3ccccn23)cc(OC)c1OC is ____.
A: 82.9

Q: Recorded growth of COc1cc(-c2cc(/C=C3\C(=O)Nc4ccccc43)[nH]n2)cc(OC)c1OC , please.
A: 53.7

Q: Which growth is reported for this compound? CCCCCCCCCCCCCCCCCC(=O)OCCCCCCC
A: 105

Q: What does the record list as growth for CC/C(=C(/c1ccc(OCCN(C)C)cc1)c1ccc(OC(=O)CCCCCCCCC(=O)c2c(C)[nH]c(/C=C3\N=C(c4ccc[nH]4)C=C3OC)c2C)cc1)c1ccccc1 ?
A: 74.7

Q: # input compound: O=C(Nc1cccc(-n2cc(-c3ccncc3)c(-c3ccc(O)c(Cl)c3)n2)c1)c1cc(C(F)(F)F)cc(C(F)(F)F)c1 ; wanted: its growth
A: 63.6

Q: Which growth is listed for COc1cc(/C=C/C(=O)c2ccc(Cl)cc2)ccc1OS(=O)(=O)c1ccc(C)cc1 ?
A: 86.6

Q: Can you share its growth? I mean this compound: Oc1[nH]c2ccc(Cl)cc2c1/C=c1/ccc2c(c1)N=C(c1cc(F)cc(F)c1)N=2
A: 86.3

Q: Param item = COc1ccc(/C=C/C(=O)Nc2ccc(-c3nc4ccc(F)cc4s3)cc2)cc1 ; retrieve measured growth.
A: 93.8

Q: Fill in: growth of CCC(=O)N1C/C(=C/c2ccc(Br)cc2)C(=O)/C(=C/c2ccc(Br)cc2)C1 is ___
A: -48.8

Q: Return reported growth; argument: CCCCC/C=C/C(=O)CCc1ccc(O)c(OC)c1
A: 81.3

Q: Which growth value belongs to COc1ccc(-c2nn(-c3cccc(NC(=O)Nc4cccc(C(F)(F)F)c4)c3)cc2-c2ccncc2)cc1Cl ?
A: 19.7
